Experiment: Cytotoxicity against HepG2
Format: cell-based
Settings: human, HepG2 cells (ATCC HB-8065), 5 days exposure
Ranges used to classify CC50 at 5 days: 1: < 5 µM; 2: ≥ 5 µM and < 20 µM; 3: ≥ 20 µM

Q: Determine which band this molecule sits in: `CNC(=O)c1ccc(-c2cnn3ccc(C(=O)N(c4ccc(F)cn4)C4CC4)cc23)cc1`
Ans: 3

Q: Determine which band this molecule sits in: `CNC(=O)c1ccc(-c2cnn3ccc(C(=O)N(C)c4ccc(OCCN)cn4)cc23)cc1`
Ans: 3

Q: Determine which band this molecule sits in: `CNC(=O)c1ccc(-c2cnn3ccc(C(=O)N(c4ccc(C#N)cc4)C4CC4)cc23)nc1`
Ans: 3

Q: Determine which band this molecule sits in: `CNC(=O)c1ccc(-c2cnn3ccc(C(=O)N(NC)c4ccc(C#N)cc4)cc23)cn1`
Ans: 2

Q: Determine which band this molecule sits in: `CNC(=O)c1ccc(-c2cnn3ccc(C(=O)N(c4ccc(C(F)(F)F)cn4)C(C)C)cc23)cc1`
Ans: 3

Further cases:
Q: Determine which band this molecule sits in: `CNC(=O)c1ccc(-c2cnn3ccc(C(=O)N(CC4CC4)c4ccc(C#N)cn4)cc23)cc1`
Ans: 1

Q: Determine which band this molecule sits in: `CN(C(=O)c1ccn2ncc(-c3ccc(N)nc3)c2c1)c1ccc(C#N)cn1`
Ans: 3

###

Test: Cytotoxicity against HepG2
Type: cell-based
Conditions: human, HepG2 cells (ATCC HB-8065), 5 days exposure
assay-endpoint: CC50 at 5 days

Q: Fill blank: measured CC50 at 5 days of the compound CN(C(=O)c1ccn2ncc(-c3ccc(C(N)=O)cc3)c2c1)C1CCC(C#N)CC1 (centres unmarked) is ____.
Ans: > 50 µM

Further cases:
Q: Fill blank: measured CC50 at 5 days of the compound `N#Cc1ccc(N(C(=O)c2ccn3ncc(-c4ccc(C(N)=O)nc4)c3c2)C2CC2)cc1` is ____.
Ans: 8.1 µM

Q: Fill blank: measured CC50 at 5 days of the compound `CNC(=O)c1ccc(-c2cnn3ccc(C(=O)N(c4ccc(F)cn4)C(C)C)cc23)cc1` is ____.
Ans: 29.2 µM

Q: Fill blank: measured CC50 at 5 days of the compound `CNC(=O)c1ccc(-c2cnn3ccc(C(=O)N(c4ccc(F)c(F)c4)C4CC4)cc23)cc1` is ____.
Ans: > 50 µM

Q: Fill blank: measured CC50 at 5 days of the compound `CNC(=O)c1ccc(-c2cnn3ccc(C(=O)Nc4ccc(C#N)cn4)cc23)cc1` is ____.
Ans: > 50 µM

###

Experiment: Cytotoxicity against HepG2
Format: cell-based
Conditions: human, HepG2 cells (ATCC HB-8065), 5 days exposure
log10 CC50 at 5 days overview
Please interpret these as log10 of CC50 at 5 days where CC50 at 5 days is in µM.

Example entries begin here.
Q: Fill blank: measured log10 CC50 at 5 days of the compound `N#Cc1ccc(N(C2CC2)S(=O)(=O)c2ccn3ncc(-c4ccc(C(N)=O)cc4)c3c2)nc1` is ____.
Ans: 0.80

Q: Fill blank: measured log10 CC50 at 5 days of the compound `CNC(=O)c1ccc(-c2cnn3ccc(C(=O)N(c4ccc(C#N)c(OC)n4)C4CC4)cc23)cc1` is ____.
Ans: 1.37

Q: Fill blank: measured log10 CC50 at 5 days of the compound `CNC(=O)c1ccc(-c2cnn3ccc(C(=O)N(c4ccc(C)cn4)C4CC4)cc23)cc1` is ____.
Ans: 0.80

Q: Fill blank: measured log10 CC50 at 5 days of the compound `CNC(=O)c1ccc(-c2cnn3ccc(C(=O)N(c4ccc(C#N)cc4)C(C)C)cc23)cn1` is ____.
Ans: 1.51

Q: Fill blank: measured log10 CC50 at 5 days of the compound `CN(C(=O)c1ccn2ncc(-c3ccc(C(N)=O)cc3)c2c1)c1ccc(F)cc1` is ____.
Ans: 0.73

Q: Fill blank: measured log10 CC50 at 5 days of the compound `NC(=O)c1ccc(-c2cnn3ccc(C(=O)N4CCOc5cc(F)ccc54)cc23)cc1` is ____.
Ans: 0.26

Further cases:
Q: Fill blank: measured log10 CC50 at 5 days of the compound `CN(C(=O)c1ccn2ncc(-c3ccc(C(=O)NC4CCNCC4)cc3)c2c1)c1ccc(C#N)cn1` is ____.
Ans: 0.43

Q: Fill blank: measured log10 CC50 at 5 days of the compound `CN(C(=O)c1ccn2ncc(-c3ccc(C(N)=O)cc3)c2c1)c1ccc(C#N)cn1` is ____.
Ans: 1.20

Q: Fill blank: measured log10 CC50 at 5 days of the compound `CNC(=O)c1ccc(-c2cnn3ccc(C(=O)N(C)c4ccc(F)cc4)cc23)cc1` is ____.
Ans: 0.68

Q: Fill blank: measured log10 CC50 at 5 days of the compound `CNC(=O)c1ccc(-c2cnn3ccc(N(C(=O)c4ccc(C#N)cn4)C4CC4)cc23)cc1` is ____.
Ans: 1.51

Q: Fill blank: measured log10 CC50 at 5 days of the compound `CNC(=O)c1ccc(-c2cnn3ccc(C(=O)N(c4ccc(C#N)cc4)C4CC4)cc23)cc1` is ____.
Ans: 0.77

Q: Fill blank: measured log10 CC50 at 5 days of the compound `CNC(=O)c1ccc(-c2cnn3ccc(C(=O)N(c4ccc(C#N)cn4)C(C)C)cc23)nc1` is ____.
Ans: 1.66
